Experiment: NCI Yeast Anticancer Drug Screen. Data for the bub3 strain (AID 167)
Details: S. cerevisiae bub3 mutant strain, hits give high values; at 50.0 µM unless noted
Procedure: Growth inhibition of yeast strains with defined genetic alterations is measured as a screen for potential anti-cancer activity. Selected strains with alterations in DNA damage repair or cell cycle control were exposed to compounds and growth inhibition was measured relative to vehicle treated controls. The strain used in this assay is bub3
The panel holds about 79,000 compounds, 15% with a hit somewhere; the sample as a whole holds those more often.
Assign growth inhibition to each entry below.
Numbers only, in %.

Record excerpt, results attached:
- MOLECULE: "CN(C)C(=O)NCCN(CCNC(=O)N(C)C)C(=O)N(C)C"
  NUMERIC RESULT: -18.8
- MOLECULE: "O=C(CCCC1CCCCC1)OC1CCCCC1"
  NUMERIC RESULT: -3.9
- MOLECULE: "COc1ccc(O)cc1C=O"
  NUMERIC RESULT: -7.35
- MOLECULE: "CC(CN(C)C)C(=O)/C=C/c1ccc(Cl)cc1 (stereo unspecified)"
  NUMERIC RESULT: -13.7
- MOLECULE: "CC(C)c1cc(C(C)C)c(S(=O)(=O)N/N=C2\\C=CCC(C)(C)C2)c(C(C)C)c1"
  NUMERIC RESULT: -4.7

Batch: growth inhibition for all items listed.
1. Cc1cc2nncn2c2ccccc12
2. Cc1c2n(c(=O)[nH]c1=O)C1OC(CO)C(O2)C1N=[N+]=[N-] (stereo unspecified)
3. CCc1c(CC)c(CC)c(CC)c(CC)c1CC
4. CC1=CC(=O)CC(C)(C)C1
5. CCOC=Nc1ccc(-n2cnc3c(Cl)ncnc32)cc1C

1.2
-9.65
1.05
17.1
-1

---

Assay: NCI Yeast Anticancer Drug Screen. Data for the rad50 strain (AID 155);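 also: 0% = growth of vehicle-only cultures of the same strain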
Details: S. cerevisiae rad50 strain growth inhibition, hits give high values; at 50.0 µM unless noted
This is part of a sample that, as a whole, favours compounds with a hit. Of some 79,000 tested, about 15% had one in any assay.
Please provide measured growth inhibition for the entries that follow.
Answers are plain numbers, in %.

Examples with their reported growth inhibition follow.
- COMPOUND: "Cc1cnc2ccccc2c1/C=C/c1ccc(N(C)C)cc1"
  UNIT ANNOTATION: "%"
  growth inhibition: -6.15
- COMPOUND: "c1ccc(CNc2nn[nH]n2)cc1"
  UNIT ANNOTATION: "%"
  growth inhibition: 2.65

Provide the reported growth inhibition of each entry below, same order.
1. O=c1c(O)c(-c2cc(O)c(O)c(O)c2)oc2cc(O)cc(O)c12
2. OCCC1CCCCN1 (configuration not stated)
3. CCOc1ccccc1Nc1ccc(N)cc1S(=O)(=O)O

1. 13.7
2. 9.25
3. 9.45

I would be grateful if you could provide growth inhibition for each of the following entries.
1. CC#CC#C/C(=C/C=CC(=O)OC)SC
2. Oc1ccc(-c2c3ccccc3c(-c3ccc(O)cc3)c3ccccc23)cc1

1. 1.95
2. -0.85

---

What growth inhibition was measured for each of the following?
Assay: NCI Yeast Anticancer Drug Screen. Data for the rad50 strain (AID 155);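 also: 0% = growth of vehicle-only cultures of the same strain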
Settings: S. cerevisiae rad50 strain growth inhibition, hits give high values; at 50.0 µM unless noted
About 79,000 compounds went through this panel and 15% of them were active in at least one assay; those are over-represented in the sample as a whole.
Answers are plain numbers, in %.

- COMPOUND: "CCc1nnc2c(C)c(C)nc(C)n12"
  NUMERIC RESULT: 21.2
- COMPOUND: "CC1(CO)COC(C)(C)OC1"
  NUMERIC RESULT: 16.1
- COMPOUND: "O=C(CCC1OCCO1)Nc1cc([N+](=O)[O-])ccc1OCc1ccccc1"
  NUMERIC RESULT: -1.9
- COMPOUND: "O=c1c2ccccc2n2c(=S)[nH]nc2n1-c1ccccc1"
  NUMERIC RESULT: -2.7
- COMPOUND: "Cc1ccc(OC/C=C/CSc2ccc(Br)cc2)cc1"
  NUMERIC RESULT: 4.95
- COMPOUND: "CCOC(=O)c1sc(N)nc1N1CCCC1"
  NUMERIC RESULT: 1.65
- COMPOUND: "O=[N+]([O-])c1ccc(-n2nnc(C3=NCCCN3)c2-c2ccc(Cl)cc2)cc1"
  NUMERIC RESULT: -11.3
- COMPOUND: "CC(=O)OC1OC(COC(c2ccccc2)(c2ccccc2)c2ccccc2)C(OC(C)=O)C(OC(C)=O)C1OC(C)=O (centres undefined)"
  NUMERIC RESULT: 12.8

For each of the items listed, what is its growth inhibition?
1. COc1ccc(/C(C)=C\C(=O)O)c(O)c1OC
2. COc1ccc(N=C2C(=Nc3ccc(OC)cc3)N(c3ccccc3)C(=S)N2N=C=C2Sc3ccccc3N2C)cc1
3. CCCCCCCC/C=C\CCCCCCCC(=O)NC(C)(C)C(=O)O
4. CCc1ccc2c(-c3ccccc3)c3c(-c4ccccc4)c4ccccc4c(-c4ccccc4)c3c(-c3ccccc3)c2c1
5. C[N+]1(CC(=O)c2ccc(Cl)cc2)CCOCC1

1: 5.9; 2: -13.2; 3: -16.2; 4: 16.6; 5: 20.8

Record growth inhibition per entry; entries follow.
1. CC(=O)OCC(C)O (centres undefined)
2. CC(C)(C)NC(=O)C(Br)c1ccccc1 (centres undefined)
3. CC(C)N1CCN(c2ccncc2S(=O)(=O)N2CCCC2)CC1
4. COC(=O)Cc1cc(C)n(C)c(=O)c1CN1C(=O)c2ccccc2C1=O
5. CC(C)(C)CNCCO
6. CC(=O)NNc1nc(C)c(C(=O)/C=C/c2ccc(NC(C)=O)cc2)s1
7. CC1=C(N2CCOCC2)C(N2CCOCC2)C(C)C1=O (centres undefined)
8. CCCCCCCCCCCC(=O)NC(=S)Nc1cccc(O)c1

1: 28; 2: 0.05; 3: 2.7; 4: 10.6; 5: -2.45; 6: 21.9; 7: 16.8; 8: 84.3

Return reported growth inhibition values for all items listed beneath this line.
1. Nc1c(F)cc(I)cc1F
2. CC(=O)[C@@]1(O)CC[C@H]2[C@@H]3CC[C@@H]4C[C@H](O)CC[C@]4(C)[C@H]3[C@H](O)C[C@@]21C

1: -3.95; 2: -9.8

Reference source: PubChem BioAssay (NCI)
